Biological target: cIAP1-BIR3 (Homo sapiens, UniProt Q13490)
Construct: cIAP1-BIR3
Sequence (Q13490 253-363 limits assumed): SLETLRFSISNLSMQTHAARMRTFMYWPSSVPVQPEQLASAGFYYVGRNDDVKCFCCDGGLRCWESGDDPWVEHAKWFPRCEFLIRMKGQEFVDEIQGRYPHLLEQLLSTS
Assay: cIAP1-BIR3 fluorescence polarization binding assay
Conditions: FP, probe AbuRPFK-5FAM (SM5F) 5 nM, cIAP1-BIR3 15 nM, 60 min at 25° C.
pIC50: −log10 of the molar value.
pIC50 overview

{"Compound": "CN[C@@H](C)C(=O)N[C@H](C(=O)N1CCC[C@H]1C(=O)N[C@@H]1CCCc2c(Nc3cccc4c3CCC[C@H]4NC(=O)[C@@H]3CCCN3C(=O)[C@@H](NC(=O)[C@H](C)NC)C3CCCCC3)cccc21)C1CCCCC1 [Compound VI]", "Target entity": "cIAP1-BIR3 (Homo sapiens, UniProt Q13490)", "pIC50": "8.00 to 9.00"}
{"Compound": "CN[C@@H](C)C(=O)N[C@H](C(=O)N1CCC[C@H]1C(=O)N[C@@H]1CCc2c(-c3cccc4c3CC[C@H]4NC(=O)[C@@H]3CCCN3C(=O)[C@@H](NC(=O)[C@H](C)NC)C3CCOCC3)cccc21)C1CCOCC1 [Compound V-R]", "Target entity": "cIAP1-BIR3 (Homo sapiens, UniProt Q13490)", "pIC50": "8.00 to 9.00"}

###

Molecular target: cIAP2-BIR3 (Homo sapiens, UniProt Q13489)
Construct: cIAP2-BIR3
Sequence (Q13489 238-349 limits assumed): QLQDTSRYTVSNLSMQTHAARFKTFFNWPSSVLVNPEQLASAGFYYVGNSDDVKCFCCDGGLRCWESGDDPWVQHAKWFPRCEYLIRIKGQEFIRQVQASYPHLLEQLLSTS
Assay: cIAP2-BIR3 fluorescence polarization binding assay
Details: FP, probe AbuRPFK-5FAM (SM5F) 5 nM, cIAP2-BIR3 80 nM, 60 min at 25° C.
Description: IAPs are one main cause of cancer development and may result from overexpression of anti-apoptotic proteins. This protocol establishes three binding assays for […] Bir3 domain, cIAP1 and cIAP2 using FP (fluorescence polariation) technology. The fluorescence probe used is a synthetic peptide conjugated to 5-carboxyfluorescein (AbuRPFK-5FAM). The fluorescence polarization value (mP) was detected by Envision, which was used to reflect the binding degree of protein and fluorescent marker. • a. […]
pIC50: −log10 of the molar value.
pIC50 overview

{"Line notation": "CN[C@@H](C)C(=O)N[C@H](C(=O)N1CCC[C@H]1C(=O)N[C@@H]1CCCc2c(OCCCCCOc3cccc4c3CCC[C@H]4NC(=O)[C@@H]3CCCN3C(=O)[C@@H](NC(=O)[C@H](C)NC)C(C)C)cccc21)C(C)C", "pIC50": "7.00 to 8.00"}
{"Line notation": "CN[C@@H](C)C(=O)N[C@H](C(=O)N1CCC[C@H]1C(=O)N[C@@H]1CCCc2c(Nc3cccc4c3CCC[C@H]4NC(=O)[C@@H]3CCCN3C(=O)[C@@H](NC(=O)[C@H](C)NC)C3CCOCC3)cccc21)C1CCOCC1", "pIC50": "7.00 to 8.00"}

###

pIC50 overview
Biological target: cIAP2-BIR3 (Homo sapiens, UniProt Q13489)
Construct: cIAP2-BIR3
Assay: cIAP2-BIR3 fluorescence polarization binding assay
Conditions: FP, probe AbuRPFK-5FAM (SM5F) 5 nM, cIAP2-BIR3 80 nM, 60 min at 25° C.
pIC50: −log10 of the molar value.

{"Line notation": "CC[C@H](NC(=O)[C@H](C)NC)C(=O)N1CCC[C@H]1C(=O)N[C@@H]1CCCc2c(Oc3cccc4c3CCC[C@H]4NC(=O)[C@@H]3CCCN3C(=O)[C@H](CC)NC(=O)[C@H](C)NC)cccc21", "pIC50": "7.00 to 8.00"}
{"Line notation": "CN[C@@H](C)C(=O)N[C@@H](C)C(=O)N1CCC[C@H]1C(=O)N[C@@H]1CCCc2c(OCCCCCOc3cccc4c3CCC[C@H]4NC(=O)[C@@H]3CCCN3C(=O)[C@H](C)NC(=O)[C@H](C)NC)cccc21", "pIC50": "7.00 to 8.00"}
{"Line notation": "CN[C@@H](C)C(=O)N[C@H](C(=O)N1CCC[C@H]1C(=O)N[C@@H]1CCCc2c(OCCOCCOc3cccc4c3CCC[C@H]4NC(=O)[C@@H]3CCCN3C(=O)[C@@H](NC(=O)[C@H](C)NC)C3CCCCC3)cccc21)C1CCCCC1", "pIC50": "8.00 to 9.00"}

###

Biological target: cIAP1-BIR3 (Homo sapiens, UniProt Q13490)
Construct: cIAP1-BIR3
Test: cIAP1-BIR3 fluorescence polarization binding assay
Settings: FP, probe AbuRPFK-5FAM (SM5F) 5 nM, cIAP1-BIR3 15 nM, 60 min at 25° C.

{"Line notation": "CN[C@@H](C)C(=O)N[C@H](C(=O)N1CCC[C@H]1C(=O)N[C@@H]1CCCc2c(-c3ccc4cc(-c5cccc6c5CCC[C@H]6NC(=O)[C@@H]5CCCN5C(=O)[C@@H](NC(=O)[C@H](C)NC)C5CCCCC5)ccc4c3)cccc21)C1CCCCC1", "IC50": "1 to 10 nM"}
{"Line notation": "CN[C@@H](C)C(=O)N[C@H](C(=O)N1CCC[C@H]1C(=O)N[C@@H]1CCc2c(-c3cccc4c3CC[C@H]4NC(=O)[C@@H]3CCCN3C(=O)[C@@H](NC(=O)[C@H](C)NC)C3CCCCC3)cccc21)C1CCCCC1", "IC50": "1 to 10 nM"}

###

IC50 overview
Molecular target: XIAP-BIR3 (Homo sapiens, UniProt P98170)
Construct: XIAP-BIR3
Sequence (P98170 241-356 limits assumed): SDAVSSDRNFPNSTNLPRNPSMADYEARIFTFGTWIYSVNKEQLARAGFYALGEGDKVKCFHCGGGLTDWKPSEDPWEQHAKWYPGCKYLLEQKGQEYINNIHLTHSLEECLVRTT
Experiment: XIAP-BIR3 fluorescence polarization binding assay
Conditions: FP, probe AbuRPFK-5FAM (SM5F) 5 nM, XIAP-BIR3 40 nM, 60 min at 25° C.

{"Compound": "CN[C@@H](C)C(=O)N[C@H](C(=O)N1CCC[C@H]1C(=O)N[C@@H]1CCCc2c(OCCOCCOc3cccc4c3CCC[C@H]4NC(=O)[C@@H]3CCCN3C(=O)[C@@H](NC(=O)[C@H](C)NC)C(C)C)cccc21)C(C)C [Compound II-A]", "IC50": "0.1 to 1 µM"}
{"Compound": "CN[C@@H](C)C(=O)N[C@H](C(=O)N1CCC[C@H]1C(=O)N[C@@H]1CCCc2c(-c3ccc(-c4cccc5c4CCC[C@H]5NC(=O)[C@@H]4CCCN4C(=O)[C@@H](NC(=O)[C@H](C)NC)C(C)(C)C)cc3)cccc21)C(C)(C)C [Compound III-J]", "IC50": "0.01 to 0.1 µM"}
{"Compound": "CN[C@@H](C)C(=O)N[C@H](C(=O)N1CCC[C@H]1C(=O)N[C@@H]1CCOc2c(-c3cccc4c3OCC[C@H]4NC(=O)[C@@H]3CCCN3C(=O)[C@@H](NC(=O)[C@H](C)NC)C3CC3)cccc21)C1CC1 [Compound V-E]", "IC50": "0.01 to 0.1 µM"}
{"Compound": "CN[C@@H](C)C(=O)N[C@H](C(=O)N1CCC[C@H]1C(=O)N[C@@H]1CCCc2c(-c3ccc(-c4cccc5c4CCC[C@H]5NC(=O)[C@@H]4CCCN4C(=O)[C@@H](NC(=O)[C@H](C)NC)C4CCCCC4)cc3)cccc21)C1CCCCC1 [Compound III]", "IC50": "0.01 to 0.1 µM"}
{"Compound": "CN[C@@H](C)C(=O)N[C@H](C(=O)N1C[C@@H](O)C[C@H]1C(=O)N[C@@H]1CCCc2c(OC/C=C/COc3cccc4c3CCC[C@H]4NC(=O)[C@@H]3C[C@H](O)CN3C(=O)[C@@H](NC(=O)[C@H](C)NC)C3CCCCC3)cccc21)C1CCCCC1 [Compound I-E]", "IC50": "0.01 to 0.1 µM"}
{"Compound": "CN[C@@H](C)C(=O)N[C@H](C(=O)N1CCC[C@H]1C(=O)N[C@@H]1CCCc2c(OCc3ccc(COc4cccc5c4CCC[C@H]5NC(=O)[C@@H]4CCCN4C(=O)[C@@H](NC(=O)[C@H](C)NC)C4CCCCC4)cc3)cccc21)C1CCCCC1 [Compound I-F]", "IC50": "0.1 to 1 µM"}
{"Compound": "CC[C@H](NC(=O)[C@H](C)NC)C(=O)N1CCC[C@H]1C(=O)N[C@@H]1CCOc2c(-c3cccc4c3OCC[C@H]4NC(=O)[C@@H]3CCCN3C(=O)[C@H](CC)NC(=O)[C@H](C)NC)cccc21 [Compound V-B]", "IC50": "0.01 to 0.1 µM"}
{"Compound": "CN[C@@H](C)C(=O)N[C@H](C(=O)N1C[C@@H](O)C[C@H]1C(=O)N[C@@H]1CCCc2c(OCCCCCOc3cccc4c3CCC[C@H]4NC(=O)[C@@H]3C[C@H](O)CN3C(=O)[C@@H](NC(=O)[C@H](C)NC)C3CCCCC3)cccc21)C1CCCCC1 [Compound I-B]", "IC50": "0.1 to 1 µM"}
